biological target: wild type PRC2 (wtPRC2) complex (Homo sapiens, UniProt O75530); test: EED LC-MS assay (SAH production by PRC2); format: biochemical; settings: read-out: (b) IC50, EED LC-MS Qualified
Sequence (Q15910 whole entry partner, one chain of several): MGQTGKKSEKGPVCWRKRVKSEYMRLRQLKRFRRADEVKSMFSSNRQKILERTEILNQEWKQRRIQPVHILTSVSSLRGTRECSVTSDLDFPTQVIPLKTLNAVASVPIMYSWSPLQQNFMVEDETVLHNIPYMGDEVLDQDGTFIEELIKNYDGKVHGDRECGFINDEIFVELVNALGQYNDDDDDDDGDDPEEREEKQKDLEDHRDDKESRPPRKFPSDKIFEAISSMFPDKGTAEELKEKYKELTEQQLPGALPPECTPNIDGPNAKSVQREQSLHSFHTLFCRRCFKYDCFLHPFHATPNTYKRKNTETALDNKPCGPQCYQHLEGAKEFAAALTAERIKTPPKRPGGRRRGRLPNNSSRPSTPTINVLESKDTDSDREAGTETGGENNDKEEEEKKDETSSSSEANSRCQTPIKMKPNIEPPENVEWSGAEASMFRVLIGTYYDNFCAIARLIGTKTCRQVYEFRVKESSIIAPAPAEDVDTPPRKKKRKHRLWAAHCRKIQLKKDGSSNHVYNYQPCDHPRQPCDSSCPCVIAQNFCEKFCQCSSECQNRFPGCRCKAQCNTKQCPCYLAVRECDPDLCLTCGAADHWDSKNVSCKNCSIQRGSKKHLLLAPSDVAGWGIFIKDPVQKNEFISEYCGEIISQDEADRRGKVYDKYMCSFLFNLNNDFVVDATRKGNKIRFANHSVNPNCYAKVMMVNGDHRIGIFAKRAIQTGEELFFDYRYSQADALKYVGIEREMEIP
Sequence (Q15022 whole entry partner, one chain of several): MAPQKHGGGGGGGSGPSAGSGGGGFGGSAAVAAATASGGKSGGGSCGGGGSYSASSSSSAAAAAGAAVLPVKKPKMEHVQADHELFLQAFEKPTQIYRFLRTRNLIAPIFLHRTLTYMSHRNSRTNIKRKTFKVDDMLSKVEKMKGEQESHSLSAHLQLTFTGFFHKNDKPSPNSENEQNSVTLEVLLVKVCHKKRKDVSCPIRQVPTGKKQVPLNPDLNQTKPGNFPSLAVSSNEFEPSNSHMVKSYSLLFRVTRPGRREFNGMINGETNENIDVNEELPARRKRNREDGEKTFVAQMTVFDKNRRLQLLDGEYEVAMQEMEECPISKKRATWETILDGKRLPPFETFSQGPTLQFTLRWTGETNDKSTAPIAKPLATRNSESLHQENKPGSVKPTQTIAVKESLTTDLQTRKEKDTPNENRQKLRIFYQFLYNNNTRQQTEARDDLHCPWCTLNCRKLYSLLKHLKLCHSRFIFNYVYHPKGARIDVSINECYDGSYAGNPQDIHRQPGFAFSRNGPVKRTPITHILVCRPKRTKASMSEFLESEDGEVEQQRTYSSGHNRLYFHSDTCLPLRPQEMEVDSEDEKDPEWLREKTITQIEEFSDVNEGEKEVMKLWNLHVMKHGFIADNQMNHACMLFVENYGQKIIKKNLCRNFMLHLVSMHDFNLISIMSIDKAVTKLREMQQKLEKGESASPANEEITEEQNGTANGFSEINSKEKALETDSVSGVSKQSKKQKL
Sequence (Q09028 whole entry partner, one chain of several): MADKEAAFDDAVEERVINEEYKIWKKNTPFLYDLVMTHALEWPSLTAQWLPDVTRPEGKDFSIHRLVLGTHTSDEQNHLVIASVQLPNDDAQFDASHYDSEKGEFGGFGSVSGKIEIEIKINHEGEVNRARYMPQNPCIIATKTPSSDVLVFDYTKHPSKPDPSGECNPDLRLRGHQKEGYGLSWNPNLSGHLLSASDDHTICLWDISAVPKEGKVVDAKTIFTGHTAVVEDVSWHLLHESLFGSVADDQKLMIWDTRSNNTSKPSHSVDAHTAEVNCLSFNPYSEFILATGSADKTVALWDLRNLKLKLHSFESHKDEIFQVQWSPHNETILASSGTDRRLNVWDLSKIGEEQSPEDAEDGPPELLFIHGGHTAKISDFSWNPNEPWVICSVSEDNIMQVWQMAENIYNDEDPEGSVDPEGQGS
Sequence (Q6ZN18 whole entry partner, one chain of several): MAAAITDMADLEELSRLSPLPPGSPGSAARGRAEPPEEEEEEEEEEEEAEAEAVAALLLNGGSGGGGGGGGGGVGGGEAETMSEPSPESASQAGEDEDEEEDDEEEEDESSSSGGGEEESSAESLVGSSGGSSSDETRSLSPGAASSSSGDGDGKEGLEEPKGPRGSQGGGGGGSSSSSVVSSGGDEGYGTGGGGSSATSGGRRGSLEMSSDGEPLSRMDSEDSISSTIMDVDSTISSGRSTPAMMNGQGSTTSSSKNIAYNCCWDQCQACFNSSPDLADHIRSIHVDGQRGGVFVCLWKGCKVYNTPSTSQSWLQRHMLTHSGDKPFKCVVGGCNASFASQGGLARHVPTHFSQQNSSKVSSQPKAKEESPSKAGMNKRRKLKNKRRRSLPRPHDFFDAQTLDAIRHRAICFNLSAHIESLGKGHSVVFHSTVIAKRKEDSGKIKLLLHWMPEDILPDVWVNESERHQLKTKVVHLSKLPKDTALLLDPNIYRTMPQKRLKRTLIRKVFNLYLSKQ
pIC50: −log10 of the molar value.
ASSAY READOUT: pIC50

Illustrative cases are given below, each with its answer.
{"columns": ["SMILES REPRESENTATION", "SYSTEM UNDER TEST", "pIC50"],
 "data": [
  ["CCN1CCN(c2ccc(-c3ccc(NCc4ccccc4OC)n4cnnc34)cc2)CC1", "wild type PRC2 (wtPRC2) complex (Homo sapiens, UniProt O75530)", 6.68],
  ["COc1ccccc1CNc1ccc(-c2ccc(S(=O)(=O)C(C)C)nc2)c2nncn12", "wild type PRC2 (wtPRC2) complex (Homo sapiens, UniProt O75530)", 6.24],
  ["COc1cccc(F)c1CNc1ccc(-c2cnc(N3CCN(C(C)C)CC3)c(C(F)(F)F)c2)c2nncn12", "wild type PRC2 (wtPRC2) complex (Homo sapiens, UniProt O75530)", 6.46],
  ["CCS(=O)(=O)c1ccc(-c2ccc(NCc3ccccc3OC)n3cnnc23)cc1", "wild type PRC2 (wtPRC2) complex (Homo sapiens, UniProt O75530)", 6.89],
  ["COc1ccccc1CNc1ccc(-c2ccc(CN3CC(F)(F)C3)cc2)c2nncn12", "wild type PRC2 (wtPRC2) complex (Homo sapiens, UniProt O75530)", 6.64]
]}

[a] COc1cc(F)cc(F)c1CNc1ccc(-c2ccc(CN(C)C)cc2)c2nncn12
[b] COc1ccccc1CNc1ccc(-c2cccnc2)c2nncn12
[c] COc1cccc(F)c1CNc1ccc(-c2ccc(S(N)(=O)=O)cc2)c2nncn12
[d] COc1cccc(F)c1CNc1ccc(-c2cnc(CC(C)C)nc2C)c2nncn12
Exam item: Rank entries according to their pIC50, from the largest number down. To answer, arrange all of the labels according to the requested order.
Marked response: d, a, c, b

[I] COc1ccccc1CNc1ccc(-c2ccnc(C)c2)c2nncn12
[II] COc1ccccc1CNc1ccc(-c2ccc(CN3CCOCC3)cc2)c2nncn12
[III] COc1ccccc1CNc1ccc(-c2ccc(C(N)=O)c(Cl)c2)c2nncn12
Exam item: Given 3 compounds, produce a descending ranking by pIC50. Arrange the labels as the request states and list them.
Marked response: I, II, III

====

system: H3K27 methylation in G401 cell; assay: ELISA (H3K27 methylation) assay in G401 cells; format: cell-based, human; conditions: Homo sapiens, G-401, H3K27 methylation ELISA, read-out: (c) IC50 ELISA Qualified
pIC50: −log10 of the molar value.
ASSAY READOUT: pIC50

Worked examples, 6 compounds total:
{"columns": ["COMPOUND", "SYSTEM UNDER TEST", "pIC50"],
 "data": [
  ["COc1cc(F)cc(F)c1CNc1ccc(-c2cccnc2)c2nncn12 [Example 220]", "H3K27 methylation in G401 cell", 7.25],
  ["COc1cc(F)cc(F)c1CNc1c(F)cc(-c2cccnc2C)c2nncn12 [Example 320]", "H3K27 methylation in G401 cell", 6.36],
  ["COc1ccc(-c2ccc(NCc3c(F)cccc3OC)n3cnnc23)c(C)n1 [Example 310]", "H3K27 methylation in G401 cell", 7.78],
  ["COc1cccc(F)c1CNc1ccc(-c2cc(C)ncc2C(F)F)c2nncn12 [Example 337]", "H3K27 methylation in G401 cell", 7.37],
  ["COc1cccc(F)c1CNc1ccc(-c2cnc(C3CC3)nc2C)c2nncn12 [Example 284]", "H3K27 methylation in G401 cell", 7.98],
  ["COc1cccc(F)c1CNc1ccc(-c2cn(C)nc2C(F)F)c2nncn12 [Example 313]", "H3K27 methylation in G401 cell", 8.40]
]}

[P] COc1cccc(F)c1CNc1ccc(-c2cccnc2C(F)(F)F)c2nncn12 [Example 237]
[Q] COc1cccc(F)c1CNc1ccc(-c2cc(C)nn2C)c2nncn12 [Example 288]
[R] COc1cccc(F)c1CNc1ccc(-c2ccnc(CCO)c2)c2nncn12 [Example 175]
[S] COc1cccc(F)c1CNc1ccc(-c2cccnc2OC)c2nncn12 [Example 176]
Exam item: // sort entries: pIC50, high to low Output spec: a listing of the labels in the requested order.
Marked response: Q, R, S, P
(Q: 8.20, R: 7.62, S: 7.23, P: 6.94)

[P] COc1cccc(F)c1CNc1ccc(-c2cncc(O)c2)c2nncn12 [Example 207]
[Q] COc1cccc(F)c1CNc1ccc(-c2ccnc(C(F)F)c2C)c2nncn12 [Example 277]
Exam item: Quick one: lower pIC50, P or Q ? Give the chosen item's label as your response.
Marked response: P
(P: 7.13, Q: 7.92)

====

biological target: wild type PRC2 (wtPRC2) complex (Homo sapiens, UniProt O75530); experiment: EED LC-MS assay (SAH production by PRC2); format: biochemical; conditions: PRC2 LC-MS assay; read-out: (b) IC50 EED LC-MS Qualified
ASSAY READOUT: IC50 (nM)

{"columns": ["MOLECULE", "SYSTEM UNDER TEST", "UNITS OF MEASURE", "IC50"],
 "data": [
  ["COc1cccc(F)c1CNc1ccc(-c2cnc(C)cc2C(F)F)c2nncn12 [Example 316]", "wild type PRC2 (wtPRC2) complex (Homo sapiens, UniProt O75530)", "nM", 215],
  ["COc1ccc(-c2ccc(NCc3c(F)cc(F)cc3OC)n3cnnc23)c(C)n1 [Example 319]", "wild type PRC2 (wtPRC2) complex (Homo sapiens, UniProt O75530)", "nM", 130],
  ["COc1c(F)ccc(F)c1CNc1ccc(-c2cccnc2C)c2nncn12 [Example 327]", "wild type PRC2 (wtPRC2) complex (Homo sapiens, UniProt O75530)", "nM", 172]
]}

====

biological target: wild type PRC2 (wtPRC2) complex (Homo sapiens, UniProt O75530); assay: EED LC-MS assay (SAH production by PRC2); format: biochemical; conditions: PRC2 LC-MS assay; read-out: (b) IC50 EED LC-MS Qualified
pIC50: −log10 of the molar value.
ASSAY READOUT: pIC50

[I] COc1cccc(F)c1CNc1ccc(-c2cc(F)ncc2C)c2nncn12
[II] COc1cccc(F)c1CNc1ccc(-c2cn(C)nc2C(F)F)c2nncn12
[III] COc1cc(F)cc(F)c1CNc1ccc(-c2ccnn2C)c2nncn12
Exam item: Order all 3 entries above by recorded pIC50, highest first, lowest last. Could you list the labels in the order requested?
Marked response: II, I, III
(II: 7.83, I: 7.12, III: 6.90)

====

target: EED (1-441)-His protein (Homo sapiens); construct: 30 nM EED (1-441)-His protein; assay: EED-H3K27Me3 peptide competition binding assay by AlphaScreen; conditions: read-out: (a) IC50, EED Alphascreen binding Qualified
Sequence (O75530 whole entry): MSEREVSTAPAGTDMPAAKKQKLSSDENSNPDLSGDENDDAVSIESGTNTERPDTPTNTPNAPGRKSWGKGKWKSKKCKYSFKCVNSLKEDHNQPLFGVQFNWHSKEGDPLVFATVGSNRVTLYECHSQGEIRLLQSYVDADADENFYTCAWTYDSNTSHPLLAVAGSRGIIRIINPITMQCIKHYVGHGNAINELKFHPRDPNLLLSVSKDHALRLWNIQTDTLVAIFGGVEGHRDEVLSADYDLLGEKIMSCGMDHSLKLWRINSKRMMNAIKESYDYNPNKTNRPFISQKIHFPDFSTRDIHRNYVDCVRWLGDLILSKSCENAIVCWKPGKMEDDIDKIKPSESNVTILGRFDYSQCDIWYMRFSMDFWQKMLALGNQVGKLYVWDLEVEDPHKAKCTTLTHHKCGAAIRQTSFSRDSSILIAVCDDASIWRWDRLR
pIC50: −log10 of the molar value.
ASSAY READOUT: pIC50

[P] COc1ccccc1CNc1ccc(-c2ccc(CN3CC(F)C3)cc2)c2nncn12 [Example 66]
[Q] COc1cccc(F)c1CNc1ccc(-c2cnn(CCO)c2)c2nncn12 [Example 145]
[R] COc1cccc(F)c1CNc1ccc(-c2ccc(S(=O)(=O)C3CCNCC3)cc2)c2nncn12 [Example 132]
Exam item: Output the entries ranked by pIC50 from maximum down to minimum. To answer, write out the labels according to the requested order.
Marked response: P, R, Q

[A] COc1cccc(F)c1CNc1ccc(-c2nnc(C)o2)c2nncn12 [Example 9]
[B] COc1ccc(F)cc1CNc1ccc(-c2ccc(S(=O)(=O)C3CCN(C)CC3)cc2)c2nncn12 [Example 135]
[C] COc1cccc(F)c1CNc1ccc(-c2cncn2C)c2nncn12 [Example 8]
Exam item: Rank items: key pIC50, increasing. Record the ranking as a list of labels in the requested order.
Marked response: B, A, C

[A] COc1ccccc1CNc1ccc(-c2c(C)noc2C)c2nncn12 [Example 62]
[B] COc1cc(F)ccc1CNc1ccc(-c2ccc(NS(C)(=O)=O)c(F)c2)c2nncn12 [Example 129]
Exam item: Quick check, higher pIC50 between A and B ? To answer, give the label that identifies your chosen option.
Marked response: A

====

Tested on: H3K27 methylation in G401 cell
Test: ELISA (H3K27 methylation) assay in G401 cells
Format: cell-based, human
Conditions: Homo sapiens, G-401, H3K27 methylation ELISA, read-out: (c) IC50 ELISA Qualified
Procedure: Compounds of the present invention were assessed for their ability to inhibit PRC2 activity in a pentameric complex of EZH2, SUZ12, EED, Rbap48 and AEBP in biochemical assays. The ability of compounds of the present invention to inhibit cellular activity of PRC2 was assessed by analysing histone H3 lysine 27 methylation in human cell lines. […]
pIC50: −log10 of the molar value.
ASSAY READOUT: pIC50

{"columns": ["COMPOUND", "pIC50"],
 "data": [
  ["COc1cccc(F)c1CNc1ccc(-c2c(C)nn(C3CC3)c2C)c2nncn12 [Example 275]", 7.67]
]}

[1] COc1cccc(F)c1CNc1ccc(-c2cc(F)c(N)cc2F)c2nncn12 [Example 208]
[2] COc1cccc(F)c1CNc1ccc(-c2cccnc2CC#N)c2nncn12 [Example 341]
[3] COc1cc(F)cc(F)c1CNc1ccc(-c2ccc(C(=O)N(C)C)cc2C)c2nncn12 [Example 295]
Exam item: Arrange these compounds by their pIC50, starting with the largest number. Write the labels, ordered according to the request.
Marked response: 3, 2, 1
